- TARGET_ENTITY: Ephrin type-A receptor 8 (Homo sapiens) (UniProt P29322)
- Sequence (P29322 whole entry): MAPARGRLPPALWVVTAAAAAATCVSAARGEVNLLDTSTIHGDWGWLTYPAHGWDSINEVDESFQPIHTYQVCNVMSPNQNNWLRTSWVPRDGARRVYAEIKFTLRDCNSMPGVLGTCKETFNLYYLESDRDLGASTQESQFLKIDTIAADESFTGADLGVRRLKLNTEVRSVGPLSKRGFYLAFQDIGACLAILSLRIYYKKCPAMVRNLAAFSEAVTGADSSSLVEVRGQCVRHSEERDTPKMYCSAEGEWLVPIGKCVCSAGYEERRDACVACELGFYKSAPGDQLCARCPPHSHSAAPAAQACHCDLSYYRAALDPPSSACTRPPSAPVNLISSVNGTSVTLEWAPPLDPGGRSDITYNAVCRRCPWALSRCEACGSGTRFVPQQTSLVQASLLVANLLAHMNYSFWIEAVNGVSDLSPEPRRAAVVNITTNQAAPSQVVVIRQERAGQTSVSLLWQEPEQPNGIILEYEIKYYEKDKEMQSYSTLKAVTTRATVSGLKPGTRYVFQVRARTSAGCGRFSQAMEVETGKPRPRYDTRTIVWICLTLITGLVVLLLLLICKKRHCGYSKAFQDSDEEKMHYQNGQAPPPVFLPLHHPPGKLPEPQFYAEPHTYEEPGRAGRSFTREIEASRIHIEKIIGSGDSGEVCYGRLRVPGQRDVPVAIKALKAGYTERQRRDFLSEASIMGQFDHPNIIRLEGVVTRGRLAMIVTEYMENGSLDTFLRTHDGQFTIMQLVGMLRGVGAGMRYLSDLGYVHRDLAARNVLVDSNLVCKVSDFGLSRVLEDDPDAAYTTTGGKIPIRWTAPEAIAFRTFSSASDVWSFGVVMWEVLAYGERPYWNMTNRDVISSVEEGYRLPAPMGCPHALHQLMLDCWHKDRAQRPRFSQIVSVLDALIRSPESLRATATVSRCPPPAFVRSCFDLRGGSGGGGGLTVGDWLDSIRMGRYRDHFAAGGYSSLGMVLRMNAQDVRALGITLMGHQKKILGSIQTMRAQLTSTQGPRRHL
- PARTICULARS: at 10 µM

[
  {
    "COMPOUND": "Nc1ccc2ncnc(NCCc3ccc(Oc4ccccc4)cc3)c2c1",
    "residual activity [%]": 99
  },
  {
    "COMPOUND": "COc1cccc(-c2cc(=O)c3ccccc3o2)c1N",
    "residual activity [%]": 104
  },
  {
    "COMPOUND": "Cc1cc2ncc(-c3ccccc3)nc2cc1C",
    "residual activity [%]": 98
  },
  {
    "COMPOUND": "O=C1NC(=O)/C(=C\\c2ccc3nccnc3c2)S1",
    "residual activity [%]": 94
  },
  {
    "COMPOUND": "Oc1ccc(Nc2nc(-c3ccc(Cl)cc3)cs2)cc1",
    "residual activity [%]": 96
  },
  {
    "COMPOUND": "O=C1Nc2cc(Br)ccc2/C1=C1/Nc2ccccc2/C1=N\\O",
    "residual activity [%]": 82
  },
  {
    "COMPOUND": "COc1ccc(CNc2nc(N(CCO)CCO)nc3c2ncn3C(C)C)cc1",
    "residual activity [%]": 88
  },
  {
    "COMPOUND": "Cn1cc(/C=C2\\C(=O)Nc3ccc(S(N)(=O)=O)cc32)c2ccccc21",
    "residual activity [%]": 54
  },
  {
    "COMPOUND": "CO[C@H]1[C@@H](OC)C[C@H](C)[C@@H](OC)C2=CC(=O)C=C(NC(=O)/C(C)=C/C=C/[C@H](OC)[C@@H](OC(N)=O)/C(C)=C/[C@@H]1C)C2=O",
    "residual activity [%]": 105
  },
  {
    "COMPOUND": "O=C1NC(=O)/C(=C/c2ccc3c(c2)OC(F)(F)O3)S1",
    "residual activity [%]": 99
  },
  {
    "COMPOUND": "Cn1cnc2cc3c(Nc4cccc(Br)c4)ncnc3cc21",
    "residual activity [%]": 63
  },
  {
    "COMPOUND": "CC(=O)O/N=C1\\C(=C2\\C(=O)Nc3cc(Br)ccc32)Nc2ccccc21",
    "residual activity [%]": 77
  },
  {
    "COMPOUND": "CC(C)n1cnc2/c(=N/c3cccc(Cl)c3)nc(NCCO)[nH]c21",
    "residual activity [%]": 77
  },
  {
    "COMPOUND": "Ic1cccc(CSc2nnc(-c3ccncc3)o2)c1",
    "residual activity [%]": 87
  },
  {
    "COMPOUND": "CCOc1cc2ncnc(Nc3cccc(Br)c3)c2cc1OCC",
    "residual activity [%]": 20
  },
  {
    "COMPOUND": "Cc1nc2cc3nc(-c4cccs4)cnc3cc2n1C",
    "residual activity [%]": 96
  },
  {
    "COMPOUND": "COc1cc2ncnc(Nc3ccc(O)c(Br)c3)c2cc1OC",
    "residual activity [%]": 28
  },
  {
    "COMPOUND": "N#CCCc1ccc2c(c1)-c1[nH]c3ccc([N+](=O)[O-])cc3c1CC(=O)N2",
    "residual activity [%]": 69
  },
  {
    "COMPOUND": "Cc1nc(-c2ccccc2)c(-c2ccncc2)o1",
    "residual activity [%]": 54
  },
  {
    "COMPOUND": "CN(C)CCCn1cc(C2=C(c3c[nH]c4ccccc34)C(=O)NC2=O)c2ccccc21",
    "residual activity [%]": 106
  },
  {
    "COMPOUND": "Cc1ccc(NC2=CC(=O)c3sc(C)nc3C2=O)cc1",
    "residual activity [%]": 96
  },
  {
    "COMPOUND": "CCC(=O)Nc1ccc2ncnc(Nc3cccc(Br)c3)c2c1",
    "residual activity [%]": 88
  },
  {
    "COMPOUND": "Nc1n[nH]c2nnc(-c3c(-c4ccccc4)nn4ccccc34)cc12",
    "residual activity [%]": 80
  },
  {
    "COMPOUND": "COc1ccc(S(=O)(=O)N(CCO)c2ccccc2CN(C)C/C=C/c2ccc(Cl)cc2)cc1",
    "residual activity [%]": 88
  },
  {
    "COMPOUND": "NC(=O)c1ccc2[nH]c(-c3ccc(Oc4ccc(Cl)cc4)cc3)nc2c1",
    "residual activity [%]": 96
  },
  {
    "COMPOUND": "O=C1NC(=O)c2c1c1c3ccccc3[nH]c1c1[nH]c3cc(Br)ccc3c21",
    "residual activity [%]": 88
  },
  {
    "COMPOUND": "N#C/C(=C(\\N)Sc1ccc(N)cc1)c1ccccc1C(F)(F)F",
    "residual activity [%]": 87
  },
  {
    "COMPOUND": "COc1cc2ncnc(Nc3ccc(NC(=O)c4ccccc4)cc3)c2cc1OC",
    "residual activity [%]": 103
  },
  {
    "COMPOUND": "O=C1NC(=O)c2cc(Nc3ccc(F)cc3)c(Nc3ccc(F)cc3)cc21",
    "residual activity [%]": 56
  },
  {
    "COMPOUND": "c1ccc2c(-c3ccncc3)c[nH]c2c1",
    "residual activity [%]": 92
  },
  {
    "COMPOUND": "O=C1Nc2ccccc2/C1=C1/Nc2ccccc2/C1=N\\OCCC(O)CO (configuration not stated)",
    "residual activity [%]": 32
  },
  {
    "COMPOUND": "O=C(Nc1cccc(Nc2nccc(Nc3cccc(C(F)(F)F)c3)n2)c1)C1CC1",
    "residual activity [%]": 67
  },
  {
    "COMPOUND": "CO[C@@H]1[C@H](N(C)C(=O)c2ccccc2)C[C@H]2O[C@]1(C)n1c3ccccc3c3c4c(c5c6ccccc6n2c5c31)C(=O)NC4",
    "residual activity [%]": 97
  },
  {
    "COMPOUND": "O=c1c2ccccc2[nH]c(=S)n1CCN1CCC(=C(c2ccc(F)cc2)c2ccc(F)cc2)CC1",
    "residual activity [%]": 111
  },
  {
    "COMPOUND": "COc1cc2ncnc(N3CCN(C(=O)Nc4ccc(Oc5ccccc5)cc4)CC3)c2cc1OC",
    "residual activity [%]": 99
  },
  {
    "COMPOUND": "C[C@@H](N)[C@H]1CC[C@H](C(=O)Nc2ccncc2)CC1",
    "residual activity [%]": 108
  },
  {
    "COMPOUND": "Oc1c2ccccc2c2c3c(cccc13)N=N2",
    "residual activity [%]": 76
  }
]
